target system: Solute carrier family 2, facilitated glucose transporter member 1 (Homo sapiens) (UniProt P11166)
Sequence (P11166 whole entry): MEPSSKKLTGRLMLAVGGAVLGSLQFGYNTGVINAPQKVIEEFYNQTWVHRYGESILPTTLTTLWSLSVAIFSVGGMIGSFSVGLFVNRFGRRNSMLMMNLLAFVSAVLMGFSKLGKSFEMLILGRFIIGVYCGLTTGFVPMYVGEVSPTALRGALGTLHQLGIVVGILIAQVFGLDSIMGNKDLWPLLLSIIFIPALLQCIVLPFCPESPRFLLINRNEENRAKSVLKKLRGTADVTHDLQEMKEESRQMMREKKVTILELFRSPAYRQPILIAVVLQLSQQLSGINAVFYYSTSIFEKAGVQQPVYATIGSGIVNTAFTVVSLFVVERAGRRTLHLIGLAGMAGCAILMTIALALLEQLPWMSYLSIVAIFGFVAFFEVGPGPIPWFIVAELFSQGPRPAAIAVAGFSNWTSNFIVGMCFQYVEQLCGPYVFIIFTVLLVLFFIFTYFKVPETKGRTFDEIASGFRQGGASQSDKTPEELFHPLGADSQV
assay protocol: ST_JUDE_LEISH: Cytotoxicity at 2uM final concentration against transgenic Leishmania Mexicana promastigotes LmGLUT1 that are glucose transport deficient and complemented with the human glucose transporter GLUT1. Activity is measured by DNA content using SYBR green in vitro
Assay type: functional
endpoint name: inhibition (%)
// note: answer is a bare numeric in %

| compound | endpoint name | obs value |
| --- | --- | --- |
| CCCCNCc1ccc(-c2nc(CN(CCCn3ccnc3)C(=O)Nc3ccc(CC)cc3)cs2)cc1 | inhibition | 7.74 |
| Fc1ccc2[nH]c(-c3ccc(-c4ccc(CNCC5CCCO5)cc4)cc3)nc2c1 (centres undefined) | inhibition | 12.4 |
| CC(C)C[C@@H](/C=N/N1CCOC1=O)NC(=O)[C@H](CC(C)C)NC(=O)c1ccc(OCCN2CCOCC2)cc1 | inhibition | 1.39 |
| CN1CCN(Cc2ccc(-c3ccc4c(Nc5cc(O)c(Cl)cc5F)ccnc4c3)o2)CC1 | inhibition | 7.47 |
| COc1cc(NC(=O)N2CCOC(CCN3CCC4(CCc5ccccc54)CC3)(c3ccc(Cl)c(Cl)c3)C2)cc(OC)c1OC (centres undefined) | inhibition | 18.1 |
| CC(=O)c1ccc(-c2cccc3c(CC(=O)Nc4ccc5nccc(N6CCN(C)CC6)c5c4)cccc23)cc1 | inhibition | 0.38 |
| CCCNCc1ccc(-c2ccc(CN(Cc3cnc(C)cn3)C(=O)c3nn(-c4ccccc4)nc3C)cc2)nc1 | inhibition | 2.69 |
| COc1ccc2nccc(N3CCC(NCCNCc4ccc5c(n4)NC(=O)CS5)C3)c2n1 (centres undefined) | inhibition | 3.26 |

For COc1cc2c(cc1NS(=O)(=O)c1ccc(OCc3ccc(Br)cc3)cc1)CCN(C1CCC1)CC2 the compound record lists inhibition as 0.64

Measured inhibition, O=C(Nc1cccc(-c2ccc(-c3nc4cc(F)ccc4[nH]3)s2)c1)c1cccnc1 : 5.68

Per the record, CCN(CC)C(=O)c1cnc(-c2ccccc2)nc1Oc1cccc(Cl)c1 has inhibition of -0.46

Form field inhibition, entry CN(C)S(=O)(=O)n1ccc2c3c(N)nc(N)nc3ccc21 : 44.3

Recorded inhibition (compound O=C(NC1CCN(Cc2ccccc2)CC1)c1cccc(Nc2nc(-c3ccccc3)cs2)c1 ): 9.1

For Cc1noc(C)c1S(=O)(=O)N(C)Cc1ccc(-c2ccc(Cl)cc2)o1 the compound record lists inhibition as 1.57

Form: compound = CCOc1cc(C(C)C)ccc1N1CCN(CCCCNC(=O)c2ccc(NC(=O)c3ccc(Cl)cc3)cc2)CC1 ; inhibition = 4.38

The recorded inhibition for COc1ccc(NC(=O)[C@H](Cc2ccccc2)Nc2cc(C)nc(Nc3ccccc3)n2)cc1 is 12.3

Record summary for COc1cccc(CCNCCCCCCNCCc2ccc(Cl)cc2)c1 : reported inhibition = 2.26

// recorded inhibition for CCCNCc1ccc(-c2ccc(CN(CCOC)C(=O)c3ccc([N+](=O)[O-])c(C)c3)cc2)nc1 : 3.77

Documented inhibition of CC1(C)C(N(O)C(=O)Nc2ccc(Cl)c(Cl)c2)N(c2ccc(Cl)c(Cl)c2)C(=O)N1CCc1ccccc1 (centres undefined) : -0.14

These data points were gathered from ChEMBL document CHEMBL3433997.
